Test system: KB-3-1
Test: Cytotoxic Profiling of Annotated Libraries Using Quantitative High-Throughput Screening (AID 1296008); further: on the % scale 0 is the no-effect control and ±100 the full control effect; nearly all actives have a fitted effect of over 60% in size
Settings: Five cell lines viability, CellTiter-Glo ATP luminescence, 48-72 h; hits give low values
Records with an inconclusive call do not appear.
Catalogue of compounds with associated max response
Your answer should be a plain number; it is taken to be in %.

CCCC(=O)C1(c2ccccc2)CCN(C(=O)[C@@H](Cc2ccc(OC)cc2)NC(=O)[C@@H](N)Cc2cncn2C)CC1 :: -9.44

Value lookup for max response; key = C=Cc1ccccc1
-0.236

Value lookup for max response; key = C/C=C(/CC[C@@H](C)[C@H]1CC[C@H]2C3=CC[C@H]4[C@H](C)[C@@H](O)CC[C@]4(C)[C@H]3CC[C@]12C)C(C)C
-22.1

----------
System: CAOV3
Assay: Primary qHTS to identify gynecologic anti-cancer compounds using libraries of approved drugs and bioactive compounds (AID 1345084); further: nearly all actives have a fitted effect of over 55% in size
Conditions: Gynecologic cancer cell panel viability, ATPlite luminescence, 48 h; series mostly up to 57.5 µM
Inconclusive results are not listed. Calls of active or inactive are those of the source. The call rests on the fitted dose curve; in most records, active means well fitted cell-killing curve with a large enough effect; inconclusive means small, poorly fitted or top-dose-only effect, or effect the other way; inactive means flat fitted curve, though single readings scatter.
Pick one: active, inactive

What is the recorded call for this compound in the test? CN(C)CC1CCn2c(c(C3=C(c4cn(C)c5ccccc45)C(=O)NC3=O)c3ccccc32)C1 (stereo not drawn)
active

What is the recorded call for this compound in the test? CO[C@@H]1[C@H](O)CCC2(CO2)[C@H]1[C@@]1(C)O[C@@H]1CC=C(C)C (stereo partly drawn)
inactive

What is the recorded call for this compound in the test? C=C1/C(=C/C=C2\CCC[C@]3(C)[C@@H]([C@H](C)/C=C/[C@H](O)C4CC4)CC[C@@H]23)C[C@@H](O)C[C@@H]1O
inactive

What is the recorded call for this compound in the test? COc1ccc(CCc2nc3cc(-c4c(C)noc4C)ccc3n2CC(C)N2CCOCC2)cc1Cl (stereo not drawn)
inactive

What is the recorded call for this compound in the test? C=C(C)C1CCC2(C(=O)O)CCC3(C)C(CCC4C5(C)C(C=O)C(O)C(C)(C)C5CCC43C)C12 (stereo not drawn)
inactive

----------
Test: P-glycoprotein substrates identified in KB-8-5-11 adenocarcinoma cell line, qHTS therapeutic library screen (AID 1346987); further: nearly all actives have a fitted effect of over 65% in size
Details: KB-8-5-11 (P-gp overexpressing) viability, CellTiter-Glo, 72 h; series mostly up to 44.5 µM
Method: The ATP-binding cassette transporters P-glycoprotein (P-gp) is known to limit brain penetration of many chemotherapy drugs. […] All cell lines were plated into 1536-well plates at 500 cells/well in 5 uL media. […] CellTiter-Glo reagent (Promega) was dispensed into the wells, incubated for 5 min and luminescence was read on a ViewLux instrument (Perkin-Elmer). […]
Records with an inconclusive call do not appear. The source made the active and inactive calls. Calls come from the whole dose curve; as a rule, active = well fitted inhibition curve with a large enough effect; inconclusive = small, poorly fitted or top-dose-only effect; inactive = flat fitted curve, though single readings scatter.
Pick one: yes (1) = active, no (0) = inactive

Look over these answered cases.
O=C[C@H](O)[C@@H](O)[C@H](O[C@H]1O[C@H](CO)[C@@H](O[C@H]2O[C@H](CO)[C@@H](O)[C@H](O)[C@H]2O)[C@H](O)[C@H]1O)[C@H](O)CO :: no (0)
CN(C)CCN(Cc1ccc(-c2ccc(CNCCc3ccccc3)cc2)cc1)C(=O)CCC1CCCC1 :: yes (1)

What is the recorded call for this compound in the test? O=C(NC1CCC1)c1ccc(C#Cc2cccc(F)c2)nc1
no (0)

What is the recorded call for this compound in the test? O=C1C(Cc2ccc(O)cc2)N2C(=O)CCN(C(=O)NCc3ccccc3)C2CN1Cc1cccc2ccccc12 (centres undefined)
no (0)

----------
Tested on: KB-3-1
Test: Cytotoxic Profiling of Annotated Libraries Using Quantitative High-Throughput Screening (AID 1296008); further: on the % scale 0 is the no-effect control and ±100 the full control effect; nearly all actives have a fitted effect of over 60% in size
Conditions: Five cell lines viability, CellTiter-Glo ATP luminescence, 48-72 h; hits give low values
Results filed as inconclusive are left out. Activity calls are given as the source filed them. The call rests on the fitted dose curve; in most records, active means well fitted inhibition curve with a large enough effect; inconclusive means small, poorly fitted or top-dose-only effect; inactive means flat fitted curve, though single readings scatter. Where a SMILES comes first, the peptide text is derived from it. Bridges are numbered along the chain shown (N, C = ends). [ ]: non-standard residue; d: D form. The star is where a group is joined. X2 = CC[C@H](C)CCCCC(=O)*; Dab = NCC[C@H](N)C(=O)O
REPORTED_ENDPOINT: max response

Completed entries (count: 4):
CCC(C)/C=C(C)/C=C/C1=CC2=CC(=O)C3(C)OC(C)(O)C(C(=O)OC)C3C2=CO1 (stereo not drawn) :: 0.0483% (inactive)
O=S(O)CNc1ccc(S(=O)(=O)c2ccc(NCS(=O)O)cc2)cc1 :: -17.8% (inactive)
O=C(O)c1cc2ccccc2c(Cc2c(O)c(C(=O)O)cc3ccccc23)c1O :: -8.98% (inactive)
CC(C)Oc1ccc(-c2cnc3c(-c4ccnc5ccccc45)cnn3c2)cc1 :: -13.7% (inactive)

Value lookup for max response; key = COC1=C(C(=O)O)N2C(=O)[C@@H](NC(=O)[C@H](N)C3=CCC=CC3)[C@H]2SC1
-6.73% (inactive)

Value lookup for max response; key = Cc1cc(F)ccc1-c1nc(NCCN=C(N)NC#N)nc2c1ccc(=O)n2-c1c(F)cccc1F
0.209% (inactive)

Value lookup for max response; key = CC(=O)O[C@@H]1[C@H](O[C@@H]2O[C@@H](CO)[C@H](O)[C@H]2O)[C@@H](O[C@@H]2O[C@@H](C)[C@H](O[C@@H]3OC[C@@H](O)[C@H](O)[C@H]3O)[C@@H](O)[C@H]2O)[C@H](OC(=O)[C@]23CCC(C)(C)C[C@H]2C2=CCC4[C@@]5(C)CC[C@H](O[C@@H]6O[C@H](C(=O)O)[C@@H](O)[C@H](O)[C@H]6O[C@@H]6O[C@H](CO)[C@H](O)[C@H](O)[C@H]6O)[C@@](C)(C=O)C5CC[C@@]4(C)[C@]2(C)C[C@H]3O)O[C@@H]1C (stereo partly drawn)
8.09% (inactive)

Value lookup for max response; key = Cc1nc(N2CCN(C(=O)c3ccco3)CC2)c2c3c(sc2n1)CCCC3
-12.8% (inactive)

Value lookup for max response; key = CC[C@H](C)CCCCC(=O)N[C@@H](CCN)C(=O)N[C@H](C(=O)N[C@@H](CCN)C(=O)N[C@H]1CCNC(=O)[C@H]([C@@H](C)O)NC(=O)[C@H](CCN)NC(=O)[C@H](CCN)NC(=O)[C@H](CC(C)C)NC(=O)[C@@H](CC(C)C)NC(=O)[C@H](CCN)NC1=O)[C@@H](C)O (X2-[Dab]T[Dab][Dab][Dab][dL]L[Dab][Dab]T; lactam 4-C)
-11.4% (inactive)

Value lookup for max response; key = CC(C)NC(=O)N1CC[C@H](N=C2Nc3cc(F)ccc3N(CC(F)F)c3ccc(Cl)cc32)C1
-1.78% (inactive)

----------
Tested on: HeLa
Test: Primary qHTS to identify gynecologic anti-cancer compounds using libraries of approved drugs and bioactive compounds (AID 1345084); further: nearly all actives have a fitted effect of over 55% in size
Conditions: Gynecologic cancer cell panel viability, ATPlite luminescence, 48 h; series mostly up to 57.5 µM
Inconclusive results are not listed. Calls of active or inactive are those of the source. Calls follow the shape of the dose curve; as a rule, active = well fitted cell-killing curve with a large enough effect; inconclusive = small, poorly fitted or top-dose-only effect, or effect the other way; inactive = flat fitted curve, though single readings scatter.
REPORTED_ENDPOINT: outcome

Completed entries (count: 5):
CC(=O)C1=CCC2C3CC=C4CC(O)CC(O)C4(C)C3C(O)CC12C (centres undefined) :: inactive
Cc1cnn(-c2ccccc2)c1NC(=O)COCc1ccccc1 :: inactive
CC(C)C(C)C(O)C1CC23CC(=O)C4(O)C(=C2CCC3C1C)C=CC1(O)CC(O)CCC14C (centres undefined) :: inactive
Nc1ncnc2c1c(-c1ccc(Oc3ccccc3)cc1)nn2[C@@H]1CCCNC1 :: inactive
CCN1CCN(Cc2ccc(NC(=O)c3ccc(C)c(Oc4ccnc5[nH]ccc45)c3)cc2C(F)(F)F)CC1 :: inactive

Value lookup for outcome; key = COc1cc2ncnc(Oc3ccc(CC(=O)Nc4cnn(C(C)C)c4)cc3)c2cc1OC
inactive

Value lookup for outcome; key = C=C1C(=O)OC2/C=C(\COC(C)=O)CC/C=C(\C=O)CC(OC(=O)C(C)CC)C12 (centres undefined)
inactive

Value lookup for outcome; key = CC(C)(O)c1ccc2c(c1)ncn2-c1cccc(-c2ccccc2C#N)c1
inactive

Value lookup for outcome; key = C/C=C(/C)C(=O)OC1C=C2C3C(C)C(C)C(OC(=O)C(C)C(C)O)CC3(C)CCC2(C)C2(C)CC(OC(C)=O)C3C(C)(C)C(O)C(=O)CC3(C)C12 (centres undefined)
inactive

Value lookup for outcome; key = CC1(C)SCCN(S(=O)(=O)c2ccc(Oc3ccncc3)cc2)[C@H]1C(=O)NO
inactive

Value lookup for outcome; key = Nc1nccc(-c2c(-c3ccc(F)cc3)ncn2C2CCCCC2)n1
inactive

Value lookup for outcome; key = CCCCc1c(-c2ccc(OC)cc2)[nH]c2nccnc12
inactive

Value lookup for outcome; key = CC(C)(C[C@@](O)(Cc1cc2ccncc2[nH]1)C(F)(F)F)c1cc(F)ccc1O
inactive

Value lookup for outcome; key = COc1ccc([C@H](Cc2ccncc2)c2ccccc2)cc1OC1CCCC1
inactive

Value lookup for outcome; key = COc1ccc2nc(-c3cc(OC)c(OC)c(OC)c3)cc(C(=O)NCC(=O)Nc3ccc(C(C)=O)cc3)c2c1
inactive

Value lookup for outcome; key = C=C1C(=O)O[C@@H]2/C=C(\C)CC/C=C(\C)CC[C@@H]12
inactive

Value lookup for outcome; key = O=C(NC[C@H](O)CN1CCc2ccccc2C1)c1ccnc(NC2CCC2)c1
inactive

Value lookup for outcome; key = COC(=O)c1ccnc(-c2cc(C(=O)Nc3ccc(C4(N)CC4)cc3)ccn2)c1
inactive

Value lookup for outcome; key = CCn1c(=O)n([C@H]2CCCN(c3nccc(-c4cc5ccccc5o4)n3)C2)c2ccccc21
inactive

Origin of measurements: PubChem BioAssay (NCATS)
